Consider the following molecules; for each one, report its half-life.
Assay: Canine pharmacokinetic (PK) study, single IV or oral dose
Settings: dog, in vivo, iv, 0.2 mg/kg
Answers are plain numbers, in h.

Quick one: half-life for "CC(C)C[C@H]1C(=O)O[C@H](Cc2ccc(Cn3cccn3)cc2)C(=O)N(C)[C@@H](CC(C)C)C(=O)O[C@H](C)C(=O)N(C)[C@@H](CC(C)C)C(=O)O[C@H](Cc2ccc(Cn3cccn3)cc2)C(=O)N(C)[C@@H](CC(C)C)C(=O)O[C@H](C)C(=O)N1C" ?
27

Tell me the measured half-life of "CC(C)C[C@H]1C(=O)O[C@H](Cc2ccc(Cn3nccc3C3CC3)cc2)C(=O)N(C)[C@@H](CC(C)C)C(=O)O[C@H](C)C(=O)N(C)[C@@H](CC(C)C)C(=O)O[C@H](Cc2ccc(Cn3nccc3C3CC3)cc2)C(=O)N(C)[C@@H](CC(C)C)C(=O)O[C@H](C)C(=O)N1C" , please.
51

Quick one: half-life for "CC(C)C[C@H]1C(=O)O[C@H](Cc2ccc(Cn3nc(C(F)(F)F)cc3C(F)(F)F)cc2)C(=O)N(C)[C@@H](CC(C)C)C(=O)O[C@H](C)C(=O)N(C)[C@@H](CC(C)C)C(=O)O[C@H](Cc2ccc(Cn3nc(C(F)(F)F)cc3C(F)(F)F)cc2)C(=O)N(C)[C@@H](CC(C)C)C(=O)O[C@H](C)C(=O)N1C" ?
67

Recorded half-life for "CC(C)C[C@H]1C(=O)O[C@H](Cc2ccc(Cn3ccc(C(F)(F)F)n3)cc2)C(=O)N(C)[C@@H](CC(C)C)C(=O)O[C@H](C)C(=O)N(C)[C@@H](CC(C)C)C(=O)O[C@H](Cc2ccc(Cn3ccc(C(F)(F)F)n3)cc2)C(=O)N(C)[C@@H](CC(C)C)C(=O)O[C@H](C)C(=O)N1C" , please?
256

Need half-life of "CC(C)C[C@H]1C(=O)O[C@H](Cc2ccc(Cn3ccc(-c4ccccc4)n3)cc2)C(=O)N(C)[C@@H](CC(C)C)C(=O)O[C@H](C)C(=O)N(C)[C@@H](CC(C)C)C(=O)O[C@H](Cc2ccc(Cn3ccc(-c4ccccc4)n3)cc2)C(=O)N(C)[C@@H](CC(C)C)C(=O)O[C@H](C)C(=O)N1C" , thanks.
163

Using the record for "CCOc1cnn(Cc2ccc(C[C@H]3OC(=O)[C@H](CC(C)C)N(C)C(=O)[C@@H](C)OC(=O)[C@H](CC(C)C)N(C)C(=O)[C@@H](Cc4ccc(Cn5cc(OCC)cn5)cc4)OC(=O)[C@H](CC(C)C)N(C)C(=O)[C@@H](C)OC(=O)[C@H](CC(C)C)N(C)C3=O)cc2)c1" , report its half-life.
36.1

Proceeding to the next molecule to report its half-life.
What value of half-life has been recorded for this entry: "CC(C)C[C@H]1C(=O)O[C@H](Cc2ccc(Cn3nc(C4CC4)cc3C3CC3)cc2)C(=O)N(C)[C@@H](CC(C)C)C(=O)O[C@H](C)C(=O)N(C)[C@@H](CC(C)C)C(=O)O[C@H](Cc2ccc(Cn3nc(C4CC4)cc3C3CC3)cc2)C(=O)N(C)[C@@H](CC(C)C)C(=O)O[C@H](C)C(=O)N1C"
138

----------
Assay: Canine pharmacokinetic (PK) study, single IV or oral dose
Conditions: dog, in vivo, po, 1 mg/kg
Endpoint Name: half-life (days)
Answers are plain numbers, in days.

Consider the compound shown here: "CC(C)C[C@H]1C(=O)O[C@H](Cc2ccc(Cn3cc(C4CC4)cn3)cc2)C(=O)N(C)[C@@H](CC(C)C)C(=O)O[C@H](C)C(=O)N(C)[C@@H](CC(C)C)C(=O)O[C@H](Cc2ccc(Cn3cc(C4CC4)cn3)cc2)C(=O)N(C)[C@@H](CC(C)C)C(=O)O[C@H](C)C(=O)N1C" What is its recorded half-life?
4.33

----------
Could you please report measured F for the items listed next?
Test: Canine pharmacokinetic (PK) study, single IV or oral dose
Conditions: dog, oral 1 mg/kg
Numbers only, in %.

Sample "CC(C)C[C@H]1C(=O)O[C@H](Cc2ccc(Cn3nc(C(F)(F)F)cc3C(F)(F)F)cc2)C(=O)N(C)[C@@H](CC(C)C)C(=O)O[C@H](C)C(=O)N(C)[C@@H](CC(C)C)C(=O)O[C@H](Cc2ccc(Cn3nc(C(F)(F)F)cc3C(F)(F)F)cc2)C(=O)N(C)[C@@H](CC(C)C)C(=O)O[C@H](C)C(=O)N1C" — what was its F?
0.2

F lookup needed for "CC(C)C[C@H]1C(=O)O[C@H](Cc2ccc(Cn3nc(C4CC4)cc3C3CC3)cc2)C(=O)N(C)[C@@H](CC(C)C)C(=O)O[C@H](C)C(=O)N(C)[C@@H](CC(C)C)C(=O)O[C@H](Cc2ccc(Cn3nc(C4CC4)cc3C3CC3)cc2)C(=O)N(C)[C@@H](CC(C)C)C(=O)O[C@H](C)C(=O)N1C" , thanks.
10

F for "CC(C)C[C@H]1C(=O)O[C@H](Cc2ccc(CN3CCOc4ccccc43)cc2)C(=O)N(C)[C@@H](CC(C)C)C(=O)O[C@H](C)C(=O)N(C)[C@@H](CC(C)C)C(=O)O[C@H](Cc2ccc(CN3CCOc4ccccc43)cc2)C(=O)N(C)[C@@H](CC(C)C)C(=O)O[C@H](C)C(=O)N1C" ?
1

Reported F for "CC(C)C[C@H]1C(=O)O[C@H](Cc2ccc(Cn3nccc3C3CC3)cc2)C(=O)N(C)[C@@H](CC(C)C)C(=O)O[C@H](C)C(=O)N(C)[C@@H](CC(C)C)C(=O)O[C@H](Cc2ccc(Cn3nccc3C3CC3)cc2)C(=O)N(C)[C@@H](CC(C)C)C(=O)O[C@H](C)C(=O)N1C" : what is it?
30

I'd like to know its F. The compound in question is "CC(C)C[C@H]1C(=O)O[C@H](Cc2ccc(Cn3ccc(C(F)(F)F)n3)cc2)C(=O)N(C)[C@@H](CC(C)C)C(=O)O[C@H](C)C(=O)N(C)[C@@H](CC(C)C)C(=O)O[C@H](Cc2ccc(Cn3ccc(C(F)(F)F)n3)cc2)C(=O)N(C)[C@@H](CC(C)C)C(=O)O[C@H](C)C(=O)N1C"
5

Dear reader, for each entry below, please note its F.
1. CC(C)C[C@H]1C(=O)O[C@H](Cc2ccc(Cn3ccc(-c4ccccc4)n3)cc2)C(=O)N(C)[C@@H](CC(C)C)C(=O)O[C@H](C)C(=O)N(C)[C@@H](CC(C)C)C(=O)O[C@H](Cc2ccc(Cn3ccc(-c4ccccc4)n3)cc2)C(=O)N(C)[C@@H](CC(C)C)C(=O)O[C@H](C)C(=O)N1C
2. CC(C)C[C@H]1C(=O)O[C@H](Cc2ccc(Cn3cc(Br)cn3)cc2)C(=O)N(C)[C@@H](CC(C)C)C(=O)O[C@H](C)C(=O)N(C)[C@@H](CC(C)C)C(=O)O[C@H](Cc2ccc(Cn3cc(Br)cn3)cc2)C(=O)N(C)[C@@H](CC(C)C)C(=O)O[C@H](C)C(=O)N1C

1: 4; 2: 12

----------
Experiment: Canine pharmacokinetic (PK) study, single IV or oral dose
Conditions: dog, oral 1 mg/kg
Please respond with reported F for every item in the list.
One number for each entry, in %.

Report F for CCOc1cnn(Cc2ccc(C[C@H]3OC(=O)[C@H](CC(C)C)N(C)C(=O)[C@@H](C)OC(=O)[C@H](CC(C)C)N(C)C(=O)[C@@H](Cc4ccc(Cn5cc(OCC)cn5)cc4)OC(=O)[C@H](CC(C)C)N(C)C(=O)[C@@H](C)OC(=O)[C@H](CC(C)C)N(C)C3=O)cc2)c1 [Example 1b-21] please.
78

Which F value is on record for CC(C)C[C@H]1C(=O)O[C@H](Cc2ccc(Cn3cc(OC(C)C)cn3)cc2)C(=O)N(C)[C@@H](CC(C)C)C(=O)O[C@H](C)C(=O)N(C)[C@@H](CC(C)C)C(=O)O[C@H](Cc2ccc(Cn3cc(OC(C)C)cn3)cc2)C(=O)N(C)[C@@H](CC(C)C)C(=O)O[C@H](C)C(=O)N1C [Example 1b-19] ?
24

Further cases:
# input molecule: CC(C)C[C@H]1C(=O)O[C@H](Cc2ccc(Cn3cccn3)cc2)C(=O)N(C)[C@@H](CC(C)C)C(=O)O[C@H](C)C(=O)N(C)[C@@H](CC(C)C)C(=O)O[C@H](Cc2ccc(Cn3cccn3)cc2)C(=O)N(C)[C@@H](CC(C)C)C(=O)O[C@H](C)C(=O)N1C [Example 1b-23] ; wanted: its F
34

----------
Assay: Canine pharmacokinetic (PK) study, single IV or oral dose
Details: dog, in vivo, iv, 0.2 mg/kg
Give Vd for every item shown.
One number for each entry, in L/kg.

// returns reported Vd for input CCOc1cnn(Cc2ccc(C[C@H]3OC(=O)[C@H](CC(C)C)N(C)C(=O)[C@@H](C)OC(=O)[C@H](CC(C)C)N(C)C(=O)[C@@H](Cc4ccc(Cn5cc(OCC)cn5)cc4)OC(=O)[C@H](CC(C)C)N(C)C(=O)[C@@H](C)OC(=O)[C@H](CC(C)C)N(C)C3=O)cc2)c1 [Example 1b-21]
28.4

Quick request: Vd for each listed item, please.
1. CC(C)C[C@H]1C(=O)O[C@H](Cc2ccc(Cn3ccc(C(F)(F)F)n3)cc2)C(=O)N(C)[C@@H](CC(C)C)C(=O)O[C@H](C)C(=O)N(C)[C@@H](CC(C)C)C(=O)O[C@H](Cc2ccc(Cn3ccc(C(F)(F)F)n3)cc2)C(=O)N(C)[C@@H](CC(C)C)C(=O)O[C@H](C)C(=O)N1C [Example 1b-69]
2. CC(C)C[C@H]1C(=O)O[C@H](Cc2ccc(Cn3cccn3)cc2)C(=O)N(C)[C@@H](CC(C)C)C(=O)O[C@H](C)C(=O)N(C)[C@@H](CC(C)C)C(=O)O[C@H](Cc2ccc(Cn3cccn3)cc2)C(=O)N(C)[C@@H](CC(C)C)C(=O)O[C@H](C)C(=O)N1C [Example 1b-23]
3. CC(C)C[C@H]1C(=O)O[C@H](Cc2ccc(Cn3nc(C(F)(F)F)cc3C(F)(F)F)cc2)C(=O)N(C)[C@@H](CC(C)C)C(=O)O[C@H](C)C(=O)N(C)[C@@H](CC(C)C)C(=O)O[C@H](Cc2ccc(Cn3nc(C(F)(F)F)cc3C(F)(F)F)cc2)C(=O)N(C)[C@@H](CC(C)C)C(=O)O[C@H](C)C(=O)N1C [Example 1b-15]

1. 3.81
2. 8.54
3. 0.32
